assay: inhibitors of hydroxyurea-induced Chk1 phosphorylation, primary screen, imaging, HeLa, phospho-Chk1 antibody, percent positive cells (AID 1186); conditions: hydroxyurea-induced phospho-Chk1 immunofluorescence imaging, higher = more signal
z-score listing for selected compounds.
The answer should be written as a number, with no unit following it.

{"compound": "CN(C)CCCNC(=O)[C@@H]1c2ccccc2C(=O)N(C2CCCCC2)[C@H]1c1ccc(CO)cc1", "z-score": 0.208}

-- ask Consider the compound COCCOC(=O)N1C(=O)[C@@]2(c3cc(C#CCC(C(=O)OC)C(=O)OC)ccc31)[C@H](C(=O)NC[C@H](O)c1ccccc1)[C@H]1C(=O)O[C@H](c3ccccc3)[C@H](c3ccccc3)N1[C@@H]2c1ccc(O)cc1 and give its measured z-score.
-- reply -0.129

-- ask Consider the compound CN1C(=O)C2C=CC(C(O)c3cc(C(F)(F)F)cc(C(F)(F)F)c3)N(Nc3ccccc3)C2C1=O (stereo not drawn) and give its measured z-score.
-- reply -0.0145

-- ask Consider the compound CC1CC/C=C\[C@H]2OC34C=CCN(CCN5CCOCC5)C(=O)[C@H]3N(C(C)CO)C(=O)[C@@H]4C2C(=O)O1 (stereo partly drawn) and give its measured z-score.
-- reply 0.16
